experiment: chemical genetic growth profiling, strain panel (AID 1159580);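 also: tested at 20 µM; growth read once vehicle control cultures reached saturation at 30 °C; 1 = growth at the plate median or of vehicle wells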; details: S. cerevisiae deletion strains, growth OD, locus YNL153C, strain GIM3, stronger effect = lower value
Hit rate of the full screen: of about 5,500 compounds, about 2,000 (36%) were called active. Roughly 18% stayed inconclusive and do not appear here. The list shows a part of the results.
measure: normalized growth

# example entries with known answers
molecule=CON measure="normalized growth" measvalue="1.04 (inactive)"
molecule=O=C(O)c1ccccc1Sc1c(C(=O)O)cc([N+](=O)[O-])cc1[N+](=O)[O-] measure="normalized growth" measvalue="1.03 (inactive)"
molecule="CCCCC/C=C\\CC(O)/C=C/c1cccc(CC(O)CCCCO)n1 (stereo not given)" measure="normalized growth" measvalue="1 (inactive)"
molecule=CCOC(=O)c1ccc(N2CCOCC2)c(N=Cc2cc(Cl)ccc2O)c1 measure="normalized growth" measvalue="0.951 (inactive)"
molecule=CC(C)[C@@H](CO)Nc1nc(Nc2cccc(Cl)c2)c2ncn(C(C)C)c2n1 measure="normalized growth" measvalue="0.894 (inactive)"

Request: Requested read-out: normalized growth. Entry: C[N+]12CCC(CC1)C(OC(=O)C(O)(c1ccccc1)c1ccccc1)C2 (stereo not given)
Result: 0.98 (inactive)

Request: Queued: `COC1=C(OC)C(=O)c2ccccc2C1=O`
Result: 0.703 (active)

Request: Queued: `N#CCC(=O)N(Cc1ccccc1F)C(=O)NC1CCCCC1`
Result: 0.988 (inactive)

Request: Queued: `COc1ccccc1NC(=S)NCCc1ccc(OC)c(OC)c1`
Result: 1.02 (inactive)

Request: Queued: `O=[N+]([O-])c1cc(Cl)c(Sc2ccccc2)cc1Sc1ccccc1`
Result: 0.993 (inactive)

Request: Queued: `CC(=O)c1ccc(Sc2ccccn2)c([N+](=O)[O-])c1`
Result: 0.98 (inactive)

Request: Queued: `COc1cc2ncnc(Nc3cccc(Cl)c3)c2cc1OC`
Result: 0.974 (inactive)

Request: Queued: `Cn1cnc2c1c(=O)[nH]c(=O)n2C`
Result: 1.01 (inactive)

Request: Queued: `CCCn1cnc2c1c(=O)n(CCCCC(C)=O)c(=O)n2C`
Result: 1.04 (inactive)

Request: Queued: `Cn1c(=O)c2c(ncn2CCCl)n(C)c1=O`
Result: 0.988 (inactive)

* * *

test: chemical genetic growth profiling, strain panel (AID 1159580); conditions: S. cerevisiae deletion strains, growth OD, locus YJL095W, strain BCK1
The campaign covered roughly 5,500 compounds. About 2,000 (36%) were called active. Inconclusive results (about 18%) are left out. Rule as the data show it: active = normalized growth mostly below about 0.91 (no sharp cut-off); inconclusive = no clear call, values can overlap the other calls; inactive = mostly above about 0.92. Some of the results follow.
Allowed answers: Yes = active, No = inactive

Consider the following illustrative entries.
compound=FC(F)(F)c1c2c(nc3cc(-c4ccco4)nn13)CCC2 answerlabel=No
compound=Cn1ncc(-c2nc(-c3ccc(Cl)cc3)cs2)c1N answerlabel=No
compound="CC(=O)OC1CCC2(O)CC1(C)CCC1C2CC1(C)C (stereo unspecified)" answerlabel=No
compound=Cc1csc2ncnc(N3CCN(C(=O)Nc4ccc(SC(F)(F)F)cc4)CC3)c12 answerlabel=No
compound=Cn1c(=O)c2c(ncn2CCCl)n(C)c1=O answerlabel=No
compound=Cc1cc(O)c2c(c1)C(=O)c1cc(O)cc(O)c1C2=O answerlabel=Yes
compound="CO/N=C(/C(=O)NC1C(=O)N2C(C(=O)OCOC(=O)C(C)(C)C)=C(/C=C\\c3scnc3C)CSC12)c1csc(N)n1 (stereo unspecified)" answerlabel=No
compound=Cc1cc2nc3c(Cl)c(O)c4ccccc4c3nc2cc1C answerlabel=No
compound=O=c1c(O)c(-c2ccccc2)oc2cccc(O)c12 answerlabel=Yes
compound=NNC(=O)c1oc2nc(-c3ccccc3)cc(-c3ccccc3)c2c1N answerlabel=No

Proceed to the following item.
Request: Query: recorded result category for `Cc1csc2c(N3CCN(C(=S)Nc4ccc(C(F)(F)F)cc4)CC3)ncnc12` in this test
Result: No

* * *

experiment: chemical genetic growth profiling, strain panel (AID 1159580); details: S. cerevisiae deletion strains, growth OD, locus YLR221C, strain rsa3
Screen size: about 5,500 compounds; about 2,000 (36%) were called active. Another 18% or so got no clear call; they are omitted. No stated cut-off is given here; in the data, active means normalized growth mostly below about 0.91 (no sharp cut-off); inconclusive means no clear call, values can overlap the other calls; inactive means mostly above about 0.92. The list shows a part of the results.
Allowed answers: active, inactive

Consider the following illustrative entries.
compound=COc1ccc(-c2c(O)c3c(OC)c4c(cc3oc2=O)OC(C)(C)C=C4)cc1 answerlabel=inactive
compound=O=C(O)c1cc(=O)c2ccccc2[nH]1 answerlabel=inactive
compound=CN1CCC[C@H]1c1cccnc1 answerlabel=inactive
compound="CNC(C)[C@@H]1CC[C@@H](N)[C@@H](OC2[C@@H](N)C[C@@H](N)[C@H](OC3OC[C@](C)(O)[C@H](NC)[C@H]3O)[C@H]2O)O1 (stereo not given in full)" answerlabel=inactive

Request: Query: recorded result category for `O=C1c2ccccc2C(=O)c2ccccc21` in this test
Result: inactive

Request: Queued: `CC(C)N1C(=O)c2ccccc2NS1(=O)=O`
Result: inactive

Request: Queued: `NS(=O)(=O)c1cc2c(cc1Cl)NCNS2(=O)=O`
Result: inactive

Request: Queued: `COc1cc([C@@H]2c3cc4c(cc3[C@H](O)[C@H]3COC(=O)[C@H]23)OCO4)cc(OC)c1OC`
Result: inactive

Request: Queued: `O=C1C=CC(=O)c2c(O)c(Cl)c(Cl)c(O)c21`
Result: active

Request: Queued: C[N+]12CCC(CC1)C(OC(=O)C(O)(c1ccccc1)c1ccccc1)C2 (stereo not given)
Result: inactive

Request: Queued: `O=C(O)CC[N+](=O)[O-]`
Result: inactive

* * *

experiment: chemical genetic growth profiling, strain panel (AID 1159580);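 also: tested at 20 µM; growth read once vehicle control cultures reached saturation at 30 °C; 1 = growth at the plate median or of vehicle wells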; conditions: S. cerevisiae deletion strains, growth OD, locus YBR009C, strain hhf1, stronger effect = lower value
Hit rate of the full screen: of about 5,500 compounds, about 2,000 (36%) were called active. Inconclusive results (about 18%) are left out. The list shows a part of the results.
Label key: y means normalized growth under 1; n means normalized growth of 1 or more.

compound=O=c1c(O)c(-c2ccccc2)oc2ccc3occc3c12 answerlabel=y
compound="Cc1cc2nc3c(=O)[nH]c(=O)nc-3n(CC(O)C(O)C(O)CO)c2cc1C (configuration not stated)" answerlabel=y
compound=COc1cc([C@@H]2c3cc4c(cc3[C@H](O)[C@H]3COC(=O)[C@H]23)OCO4)cc(OC)c1OC answerlabel=n
compound=COc1cc(OC)c2c(OC)c(-c3ccc4c(c3)OCO4)c(=O)oc2c1 answerlabel=y
compound=COc1ccc(-c2c(O)c3c(OC)c4c(cc3oc2=O)OC(C)(C)C=C4)cc1 answerlabel=y
compound=O=c1c(O)c(-c2ccccc2)oc2cc(O)ccc12 answerlabel=y
compound=O=c1c(O)c(-c2ccc(O)cc2)oc2ccccc12 answerlabel=y
compound=O=C(O)c1cccnc1C(=O)O answerlabel=n
compound=CC(C)N1C(=O)c2ccccc2NS1(=O)=O answerlabel=y
compound=O=c1c(O)c(-c2ccccc2)oc2ccccc12 answerlabel=y

Request: Say whether its normalized growth is strictly beneath 1. Entry: `O=c1c(O)cccc2cc(O)c(O)c(O)c12`
Result: y

Request: Queued: COC(=O)CC1C(C)(C(=O)c2ccoc2)CC2OCC34C(CC(=O)OC)C5(C)CC36OC3(C)OC1(C(OC(C)=O)C6(OC(C)=O)C5OC(=O)C(C)C)C24O3 (configuration not stated)
Result: y

* * *

assay: chemical genetic growth profiling, strain panel (AID 1159580);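 also: tested at 20 µM; growth read once vehicle control cultures reached saturation at 30 °C; 1 = growth at the plate median or of vehicle wells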; conditions: S. cerevisiae deletion strains, growth OD, locus YBR023C, strain chs3
The whole screen tested about 5,500 compounds, of which about 2,000 (36%) were called active. Roughly 18% stayed inconclusive and do not appear here. Cut-off read from the data, not from the text of the source: active = normalized growth mostly below about 0.91 (no sharp cut-off); inconclusive = no clear call, values can overlap the other calls; inactive = mostly above about 0.92. The list shows a part of the results.
Allowed answers: label 1 for active, label 0 for inactive

Consider the following illustrative entries.
compound=CC(C)=CCC/C(C)=C/CO answerlabel="label 0"
compound="CC1(C)CC23C(=O)CCC(O)C2(C)CCC13 (stereo unspecified)" answerlabel="label 0"
compound="CCCC(=O)Nc1ccc(OCC(O)CNC(C)C)c(C(C)=O)c1 (stereo unspecified)" answerlabel="label 0"

Request: Query: recorded result category for `O=c1c(O)cccc2cc(O)c(O)c(O)c12` in this test
Result: label 1

Request: Queued: `O=C1C=C(O)c2ccccc2C1=O`
Result: label 0

Request: Queued: O=C(c1ccccc1)c1ccc2n1CCC2C(=O)O (stereo unspecified)
Result: label 0

* * *

This section presents molecules with their documented normalized growth values.
test: chemical genetic growth profiling, strain panel (AID 1159580);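 also: tested at 20 µM; growth read once vehicle control cultures reached saturation at 30 °C; 1 = growth at the plate median or of vehicle wells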; details: S. cerevisiae deletion strains, growth OD, locus YML120C, strain ndi1, stronger effect = lower value
Among all 5,500 compounds or so, about 2,000 (36%) were called active. Another 18% or so got no clear call; they are omitted. This is one part of the list.
Just the number, please, no unit attached.

# example entries with known answers
molecule=CC(=O)c1c(O)cc(O)cc1O measvalue=0.998
molecule=Cc1cc(O)c2c(c1)C(=O)c1cccc(O)c1C2=O measvalue=0.998

Moving on to another molecule below.
Request: Requested read-out: normalized growth. Entry: COC1=CC23CCCN2CCc2cc4c(cc2C3C1O)OCO4 (stereo not drawn)
Result: 1.02

These entries and their values trace back to PubChem BioAssay AID1159580.
